test system: SN12C renal; experiment: NCI-60 one-dose screen, 48 h (100 = growth as untreated, 0 = no growth, -100 = all killed); conditions: 10 µM unless noted
About 83,000 compounds went through this panel and 20% of them were active in at least one assay; those are over-represented in the sample as a whole. Active and inactive are the calls of the source. How the source made its calls: active means growth percent below 10; inactive means the rest.
outcome-measure: growth

COc1ccc(-c2nc(-c3cn(C)c4ncccc34)cs2)cc1
14.1% [100 µM] (inactive)
CCOc1cccc(/C=N/NC(=O)c2cccc(Nc3ccnc(C(F)(F)F)c3)c2)c1O
33.2% (inactive)

// returns growth for "C[C@H](CCCC(=O)NCC#CCN1CCN(C)CC1)[C@H]1CC[C@H]2[C@@H]3CC[C@@H]4CC(=O)CC[C@]4(C)[C@H]3CC[C@]12C" with SN12C renal; value = 86% (inactive)

Known value: SN12C renal growth of the compound "COc1ccc2[nH]cc(-c3nc(-c4c[nH]c5c(Cl)nccc45)cs3)c2c1" equals 56.5% (inactive)

Sample "O=C(NNC(=O)c1ccc(NC(=O)c2ccccn2)cc1)Nc1ccc2ccccc2c1" , system: SN12C renal. Its growth is 101% (inactive)

The compound "O=C1NC(=O)/C(=C/c2c(-c3ccccc3)nc3sc(COc4ccccc4)nn23)S1" , tested on SN12C renal, showed growth of 102% (inactive)

---

tested on: OVCAR-3 ovarian; test: NCI-60 one-dose screen, 48 h; settings: 10 µM unless noted
The panel holds about 83,000 compounds, 20% with a hit somewhere; the sample as a whole holds those more often. Activity calls are given as the source filed them. How the source made its calls: active means growth percent below 10; inactive means the rest.
Form entry, call: pick from true (active), false (inactive)

Example entries and their recorded answers appear below.
COc1cc(-c2nc3c(ncc4ccc(=O)n(-c5ccccc5)c43)s2)cc(OC)c1OC
false
NNCCc1ccc(NC(=O)CCCc2ccc(C(=O)Nc3ccccc3N)cc2)cc1
false
CC1(C)N=C(N)N=C(N)N1c1ccc(CCCCc2ccccc2)c(Cl)c1
true

Hi team, can someone confirm the assay call for "O=C(Nc1ncc(Cc2cc(C(F)(F)F)ccc2Cl)s1)c1cccs1" ?
false

Hi, do you know how "NC1=Nc2cc(OCCCCN3Cc4ccccc4C3)c(OCC3CC3)cc2C12CCCC2" came out in this test?
false

Answer briefly: the call reported for "COCCn1cc(-c2csc(-c3c[nH]c4ccc(Br)cc34)n2)c2cccnc21" in this assay.
false

Look up the recorded call for "Cc1cc2c(cc1C)N(C(=O)CCl)CC(=O)N2" in this test.
true

Query: recorded result category for "CCN(CC)CCCN1C(=O)c2c(c(C)c3c(oc4ccc(O)cc43)c2C)C1=O" in this test
false

// outcome(item) with item = "CCc1ccc(CCC(=O)Nc2ncc(Cc3ccccc3)s2)o1"
true

# lookup: test call for "Cc1ccc(Cl)cc1NC(=O)c1sc2nc3c(cc2c1N)C(=O)CCC3"
false

---

test system: RXF 393 renal; assay: NCI-60 one-dose screen, 48 h; conditions: 10 µM unless noted
This is part of a sample that, as a whole, favours compounds with a hit. Of some 83,000 tested, about 20% had one in any assay. Active and inactive are the calls of the source. The calls were made as follows: active = growth percent below 10; inactive = the rest.
Result category, one only: YES = active, NO = inactive

Solved cases (10 shown):
COc1ccc(/C=C/C(c2cc(OC)c(OC)c(OC)c2)n2cncn2)cc1 (stereo not given)
NO
C=Cc1cnc(Nc2ccc(OC)cc2)nc1NCCCNC(=O)C1CCC1
YES
CO[C@H]1CC(=O)n2c3ccccc3c3c4c(c5c6ccccc6n1c5c32)C(=O)NC4=O
NO
Cc1ccc(S(=O)(=O)N2CCC(=O)c3ccccc32)cc1
NO
CN(CCCNC(=O)Cc1ccc2ccc3cccc4ccc1c2c34)CCCNc1cc(-c2ccc3ccccc3c2)nc2ccccc12
YES
CCOC(=O)C(=CNc1cnc(Nc2ccc(N3CCOCC3)cc2)nc1Oc1ccc(OC)cc1)C(=O)OCC
NO
CCOc1cccc(/C=N/NC(=O)c2cccc(Nc3ccnc(C(F)(F)F)c3)c2)c1O
NO
C=C1C(=O)O[C@H]2[C@H]1CC/C(COC(=O)CSCSCC(=O)OC/C1=C/CC[C@@]3(C)O[C@H]3[C@H]3OC(=O)C(=C)[C@@H]3CC1)=C\CC[C@@]1(C)O[C@@H]21
YES
Nc1[nH]n2cc(-c3ccc(F)cc3)nc2c1N=Nc1ccc(S(N)(=O)=O)cc1
NO
Nc1ncnc2c1N=C(c1ccc3c(c1)OCO3)CC(c1cccc(Nc3ccnc4cc(C(F)(F)F)ccc34)c1)N2 (stereo not given)
NO

Each compound tested received a call. Report the one for "Nc1nc(N)c(N=Nc2ccccc2)c(-c2ccccc2)n1" .
NO

Per the assay record, what outcome was assigned to "COc1ccc(Cn2cc3c(c2-c2ccccc2)CCc2cnoc2-3)cc1" ?
NO

Each compound tested received a call. Report the one for "COc1ccc(-c2nc(-c3cn(C)c4ncccc34)cs2)cc1" .
YES

Status in this test for "NS(=O)(=O)c1ccc(NC(=O)/C(=C\c2ccc(Cl)cc2Cl)NC(=O)c2ccccc2)cc1" ?
NO
